Tested on: Bel-7402 human hepatic carcinoma
Assay: In vitro inhibition rate to tumor cells (MTT), Bel-7402
Format: cell-based
Settings: Homo sapiens, Bel-7402, 50 μg/ml; Table 2 (repeated screening); read-out: inhibition rate, Results (%) Bel-7402
Counter-ions that a name gives are not always drawn.
reported_endpoint: inhibition at 50 µg/mL (%)

1) CC(C)C1CC23OC1(O)CC(=CN1CCNCC1)C2CCC3C (stereo not shown) [Compound 7, Curcumol piperazine] : 60.2
2) C=C1CC2(O)OC3(CC2C(C)C)C(C)CCC13 (stereo not shown) [Curcumol E, Curcumol, reference compound] : 9.87
3) CC(C)C1CC23OC1(O)CC(C)C2CCC3C (stereo not shown) [Compound 33, hydrogenated curcumol derivative] : 14.9
4) CC(C)C1CC23OC1(O)CC1(CO1)C2CCC3C (stereo not shown) : 2.35
5) C=C1CC2(OC(=O)C(C)C)OC3(CC2C(C)C)C(C)CCC13 (stereo not shown) [Compound 3, Curcumol isobutyrate] : 11
6) C=C1CC2(OC)OC3(CC2C(C)C)C(C)CCC13 (stereo not shown) : 2.03
7) CC(C)C1CC23OC1(O)CC(=CN1CCNCC1)C2CCC3C (stereo not shown) [Compound 8, Curcumol piperazine hydrochloride] : 50.5

----------
System: Hela human cervical carcinoma
Test: In vitro inhibition rate to tumor cells (MTT), Hela
Type: cell-based
Conditions: Homo sapiens, HeLa, 50 μg/ml; Table 1; read-out: inhibition rate, Results (%) Hela
Would you mind sorting the entries by inhibition at 50 µg/mL according to these classes? low class (below 70%), middle class (70% to below 90%), high class (90% or more)

1. CC(C)C1CC23OC1(O)CC(O)(CO)C2CCC3C (stereo not drawn) [Compound 32, Curcumol dihydroxy compound] : middle class
2. C=C1CC2(OS(=O)(=O)O)OC3(CC2C(C)C)C(C)CCC13 (stereo not drawn) [Compound 20, Curcumol sulfonate] : high class
3. C=C1CC2(O)OC3(CC2C(C)C)C(C)CCC13 (stereo not drawn) [Curcumol E, Curcumol, reference compound] : middle class
4. CC(C)C1CC23OC1(O)CC1(CO1)C2CCC3C (stereo not drawn) : middle class
5. C=C1CC2(OC)OC3(CC2C(C)C)C(C)CCC13 (stereo not drawn) : middle class
6. CC(C)C1CC23OC1(O)CC(C)C2CCC3C (stereo not drawn) [Compound 33, hydrogenated curcumol derivative] : low class

----------
inhibition rate, Results (%) A-549 overview
System: A-549 human lung adenocarcinoma
Assay: In vitro inhibition rate to tumor cells (MTT), A-549
Type: cell-based
Conditions: 50 μg/ml; Table 2 (repeated screening)
reported_endpoint: inhibition rate, Results (%) A-549

1) CCCCNC1(C)CC2(OC)OC3(CC2C(C)C)C(C)CCC13 (stereo not drawn) [Compound 45] : 0.32
2) CC(=O)OC12CC(=O)C3CCC(C)C3(CC1C(C)C)O2 (stereo not drawn) [Compound 49, Curzerenone acetate] : 4.23
3) C=C1CC2(OC(=O)c3ccccc3)OC3(CC2C(C)C)C(C)CCC13 (stereo not drawn) [Compound 4, Curcumol benzoate] : 14.03
4) CC(C)C1CC23OC1(O)CC(=CO)C2CCC3C (stereo not drawn) [Compound 18, Curcumol monohydroxy compound] : −0.32
5) CC(C)C1CC23OC1(O)CC(C)(Br)C2CCC3C (stereo not drawn) [Compound 34, Curcumol monobromide without double bond] : 9.23
6) CCCCNC=C1CC2(O)OC3(CC2C(C)C)C(C)CCC13 (stereo not drawn) [Compound 13, Curcumol n-butyl amine] : 3.56
7) C=C1CC2(OS(=O)(=O)[O-])OC3(CC2C(C)C)C(C)CCC13.[Na+] (stereo not drawn) [Compound 21, Curcumol sodium sulfonate] : 20.01
8) CC(C)C1CC23OC1(O)CC(C)(O[N+](=O)[O-])C2CCC3C (stereo not drawn) [Compound 36, Curcumol mononitrate without double bond] : 1.20
9) COC12CC(=CBr)C3CCC(C)C3(CC1C(C)C)O2 (stereo not drawn) [Compound 26, Curcumol methyl ether bromide] : −3.12
10) CC(C)C1CC23OC1(O)CC(Br)(CBr)C2CCC3C (stereo not drawn) [Compound 30, Curcumol dibromide] : 4.01
11) CC(C)C1CC23OC1(O)CC(C)(N1CCNCC1)C2CCC3C.Cl (stereo not drawn) [Compound 44] : 20.33
12) C=C1CC2(OC(C)=O)OC3(CC2C(C)C)C(C)CCC13 (stereo not drawn) [Compound 1, Curcumol acetate] : −6.32
13) CCOC12CC(=CO[N+](=O)[O-])C3CCC(C)C3(CC1C(C)C)O2 (stereo not drawn) [Compound 29, Curcumol ethyl ether nitrate] : 1.23
14) CC(C)C1CC23OC1(O)CC(=CO[N+](=O)[O-])C2CCC3C (stereo not drawn) [Compound 19, Curcumol mononitrate] : 3.10
15) CCCCNC1(C)CC2(OC)OC3(CC2C(C)C)C(C)CCC13.Cl (stereo not drawn) [Compound 46] : 3.78

----------
Target: HIV-1 proteinase (HIV-1 PR) (Human immunodeficiency virus type 1 group M subtype B, UniProt P04585)
Construct: HIV-1 proteinase digests the fluorescent-labeled substrate; purchased
Assay: Screening for in vitro activity against HIV-1 proteinase
Format: biochemical
Conditions: 0.08 μg/ml; read-out: Inhibition rate
Method: Principle of the test: HIV-1 proteinase digests the fluorescent-labeled substrate in an optimal reaction condition and system. The activity of the enzyme can be reflected by the fluorescent intensity in the product of the enzyme reaction. Adding a sample into the reaction system can be used for screening the inhibitor of the enzyme. 1. HIV-1 PR: commercially available, stored at −85° C. 2. […] 4. […] The fluorescent value was measured with a FLUO star Galaxy luminoscope.
Counter-ions that a name gives are not always drawn.
reported_endpoint: inhibition at 0.08 µg/mL

1) CC(C)C1CC23OC1(O)CC(C)C2CCC3C (centres unmarked) [Compound 33, hydrogenated curcumol derivative] : 13.2%
2) CC(C)C1CC23OC1(O)CC(=CN1CCNCC1)C2CCC3C (centres unmarked) [Compound 8, Curcumol piperazine hydrochloride] : 9.74%
3) C=C1CC2(OC(=O)C(C)C)OC3(CC2C(C)C)C(C)CCC13 (centres unmarked) [Compound 3, Curcumol isobutyrate] : 4.98%
4) CC(C)C1CC23OC1(O)CC(=CN1CCNCC1)C2CCC3C (centres unmarked) [Compound 7, Curcumol piperazine] : 14.1%
5) C=C1CC2(OC(=O)CCC)OC3(CC2C(C)C)C(C)CCC13 (centres unmarked) [Compound 2, Curcumol butyrate] : 4.13%
6) CC(C)C1CC23OC1(O)CC1(CO1)C2CCC3C (centres unmarked) [Compound 47, Curcumol epoxy compound] : 6.89%
7) CC(C)C1CC23OC1(O)CC(=CBr)C2CCC3C (centres unmarked) [Compound 17, Curcumol monobromide] : 3.78%
8) C=C1CC2(OS(=O)(=O)O)OC3(CC2C(C)C)C(C)CCC13 (centres unmarked) [Compound 20, Curcumol sulfonate] : 8.76%

----------
System: 293 cells
Assay: Cell status of 293 cells treated with sample alone (herpes virus screening)
Conditions: 200 μg/ml, 24 hrs
Counter-ions that a name gives are not always drawn.
reported_endpoint: Cytopathy and cell status, Sample

1. C=C1CC2(OC(=O)C(C)C)OC3(CC2C(C)C)C(C)CCC13 (centres unmarked) [Compound 3, Curcumol isobutyrate] : Normal
2. C=C1CC2(OS(=O)(=O)O)OC3(CC2C(C)C)C(C)CCC13 (centres unmarked) [Compound 20, Curcumol sulfonate] : Good
3. CC(C)C1CC23OC1(O)CC(=CN1CCNCC1)C2CCC3C (centres unmarked) [Compound 7, Curcumol piperazine] : Good
4. CC(C)C1CC23OC1(O)C/C(=C\Nc1ccc(O)cc1)C2CCC3C (centres unmarked) [Compound 6, Curcumol p-hydroxy aniline hydrochloride] : Good
5. CCCCNC=C1CC2(O)OC3(CC2C(C)C)C(C)CCC13.Cl (centres unmarked) [Compound 14, Curcumol n-butyl amine hydrochloride] : Poor
6. CC(C)C1CC23OC1(O)CC(=CBr)C2CCC3C (centres unmarked) [Compound 17, Curcumol monobromide] : Good
7. C=C1CC2(OC(=O)c3ccccc3)OC3(CC2C(C)C)C(C)CCC13 (centres unmarked) [Compound 4, Curcumol benzoate] : Good
8. CC(C)C1CC23OC1(O)CC(=CN1CCNCC1)C2CCC3C (centres unmarked) [Compound 8, Curcumol piperazine hydrochloride] : Good
9. C=C1CC2(OS(=O)(=O)[O-])OC3(CC2C(C)C)C(C)CCC13.[Na+] (centres unmarked) [Compound 21, Curcumol sodium sulfonate] : Normal
10. CC(C)C1CC23OC1(O)C/C(=C\Nc1ccc(O)cc1)C2CCC3C (centres unmarked) [Compound 5, Curcumol p-hydroxy aniline] : Good

----------
inhibition at 50 µg/mL overview
Test system: U-937 human histocytic lymphoma
Assay: In vitro inhibition rate to tumor cells (MTT), U-937
Assay type: cell-based
Conditions: Homo sapiens, U-937, 50 μg/ml; Table 1; read-out: inhibition rate, Results (%) U-937
Where a name gives a salt, the structure may show the parent alone.
reported_endpoint: inhibition at 50 µg/mL (%)

1. CC(C)C1CC23OC1(O)CC(=CN1CCNCC1)C2CCC3C (centres unmarked) [Compound 8, Curcumol piperazine hydrochloride] : 90.3
2. CC(C)C1CC23OC1(O)CC(O)(CO)C2CCC3C (centres unmarked) [Compound 32, Curcumol dihydroxy compound] : 65.3
3. CC(C)C1CC23OC1(O)CC(C)C2CCC3C (centres unmarked) [Compound 33, hydrogenated curcumol derivative] : 44.3
4. CC(C)C1CC23OC1(O)CC(=CBr)C2CCC3C (centres unmarked) [Compound 17, Curcumol monobromide] : 87.2
5. C=C1CC2(OC)OC3(CC2C(C)C)C(C)CCC13 (centres unmarked) : 86.9
6. CC(C)C1CC23OC1(O)CC1(CO1)C2CCC3C (centres unmarked) : 86.5
7. C=C1CC2(O)OC3(CC2C(C)C)C(C)CCC13 (centres unmarked) [Curcumol E, Curcumol, reference compound] : 28
8. C=C1CC2(OC(=O)CCC)OC3(CC2C(C)C)C(C)CCC13 (centres unmarked) [Compound 2, Curcumol butyrate] : 71.2
9. C=C1CC2(OC(=O)C(C)C)OC3(CC2C(C)C)C(C)CCC13 (centres unmarked) [Compound 3, Curcumol isobutyrate] : 91.7
10. CC(C)C1CC23OC1(O)CC(=CN1CCNCC1)C2CCC3C (centres unmarked) [Compound 7, Curcumol piperazine] : 93
11. C=C1CC2(OS(=O)(=O)O)OC3(CC2C(C)C)C(C)CCC13 (centres unmarked) [Compound 20, Curcumol sulfonate] : 89.2
